Test system: PPARg DBDmut:RXRa IVT, anti-PPARg (DBD mutation: PPARg1 K132A/R137A, NR concentration 270 nM, RXRa partner concentration 90 nM)
Test: PBM binding z-score (relative to random genomic background probes); higher = stronger binding; sequences stand for … in GC…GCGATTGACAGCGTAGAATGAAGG
Please note: yes applies when PBM binding z-score is 1 or greater, and no applies otherwise.

                         sequence_data  assigned_category
 0  TCGAGTAGGTTAAGGGCATTCAGAATGGCGTCGA                 no
 1  AGAATGAGGTTATACGTAGATCAGGGAAGAAAGT                 no
 2  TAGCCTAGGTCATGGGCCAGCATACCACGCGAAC                 no
 3  CATTACGGGTCAAGGTTATAGCACGGGTGGTACG                 no
 4  TTACCAAGGTGAGCTGCGGTCGTTGATCCAACTC                 no
 5  GGAACGAGGGCAAAGTTGATAGCCTCTGTCGACG                 no
 6  AATACAGGGTCATCGTAGGCCATAGTACGCACAG                yes
 7  CCTATTAGTTGACCATAAGGACAACCGAAGCTCG                yes
 8  TCATATAGGTAAAGGTGAAAGTGGAACGATATGA                yes
 9  ACTATTAGTTGAGACGAGGGTAACCGATAGGTTG                 no
10  TCTATTAGTTGATTAGTGCAACCGAAACAGCGGA                yes
11  CCTAGTTGGTCAAGTTCACACACGCTATAGGTAC                 no
12  TCTTGTAGATCAAGCATGTTAAGAAAGCCTGAGT                 no
13  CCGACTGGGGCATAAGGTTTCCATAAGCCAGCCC                 no
14  ACTAGTTGGTCAGCTGAAGTCACACACAATTCGG                 no
15  ACTATTAGTTGACTTAGGGCAACTGATACGACGC                yes
16  ACTAGTTGGTCAGCTGAGGTCTCACACAATTCGG                 no
17  CCTACTGGGCTATTCAGAGGTCATTGATCATATG                 no
18  ATCGAAAGGTCGTGGTGAGTATAGAGAAAGGGAA                yes
19  CGTCCAACGTCAAAGGTCAGTGAAGAGATGACGG                 no
20  AATACAGGGTCACTATGCCAGAGTAGGTACGAAT                yes
21  ACCGACAGGTGAGTGAAGGTAACTCAGCTGGACG                 no
22  TAGCCTAGGTCATTCAGGGGCCAGTAAAGAAAGC                 no
23  GTACCAAGGTGAATAGGTAGTTGATGAGTAGGCG                 no
24  ACTATTAGTTGACTTAGGGCAACAGATACGACGC                yes
